Where do the numbers come from? From patent US10526345B2.

# ASSAYED SYSTEM: hGPR119 (Homo sapiens)
# Construct: expressed in transfected cells; host or cells: CHO
# PROTOCOL SUMMARY: In vitro cyclic AMP assay (Cisbio dynamic 2 HTRF kit) in CHO-hGPR119 cells
# Type: cell-based
# PROTOCOL CONDITIONS: 1 h, cAMP, compound at 1 μM, 60 min, read-out: Induction (% induction at 1 μM)
ENDPOINT: activation at 1 µM (%)

INSERT INTO measurements (compound, assayed_system, quantitative_result) VALUES
  ('CC(Oc1nc2ccc(-c3ccc(S(C)(=O)=O)cc3)nc2s1)C1CCN(c2nc(C3CC3)no2)CC1 (stereo not shown) [Compound 1048]', 'hGPR119 (Homo sapiens)', 57),
  ('CC(C)c1noc(N2CCC([C@H](C)Oc3nc4ccc(-c5cnc(S(C)(=O)=O)nc5)nc4s3)CC2)n1 [Compound 1133]', 'hGPR119 (Homo sapiens)', 55),
  ('CC(C)c1noc(N2CCC([C@H](C)Oc3nc4ncc(-c5ccc(S(C)(=O)=O)nc5)nc4s3)CC2)n1 [Compound 1114]', 'hGPR119 (Homo sapiens)', 75),
  ('CC(C)c1noc(N2CCC(C(C)Oc3nc4ccc(-c5cnoc5)nc4s3)CC2)n1 (stereo not shown) [Compound 1122]', 'hGPR119 (Homo sapiens)', 30);

* * *

# ASSAYED SYSTEM: hGPR119 (Homo sapiens, UniProt Q8TDV5)
# Construct: expressed in transfected cells; host or cells: CHO
# Sequence (Q8TDV5 1-335): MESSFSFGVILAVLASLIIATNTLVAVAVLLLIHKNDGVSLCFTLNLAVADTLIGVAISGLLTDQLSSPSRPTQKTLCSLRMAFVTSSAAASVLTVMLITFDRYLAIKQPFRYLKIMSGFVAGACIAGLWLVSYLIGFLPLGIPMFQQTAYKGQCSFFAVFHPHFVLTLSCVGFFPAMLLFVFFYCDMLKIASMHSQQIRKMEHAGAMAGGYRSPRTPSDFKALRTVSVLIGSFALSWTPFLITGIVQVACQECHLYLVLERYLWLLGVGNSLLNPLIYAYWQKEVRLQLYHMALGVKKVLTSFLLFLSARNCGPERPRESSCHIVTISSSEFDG
# PROTOCOL SUMMARY: In vitro cyclic AMP assay (Cisbio dynamic 2 HTRF kit) in CHO-hGPR119 cells
# Assay type: cell-based
# PROTOCOL CONDITIONS: 1 h, cAMP, compound at 1 μM, 60 min, read-out: Induction (% induction at 1 μM)
// No strictly below 40% in activation at 1 µM; Yes otherwise

INSERT INTO results (compound, classification) VALUES
  ('Cc1cc2nc(OC(C)C3CCN(c4nc(C(C)C)no4)CC3)sc2nc1-c1ccc(S(C)(=O)=O)cc1 (centres unmarked)', 'No'),
  ('CS(=O)(=O)c1ccc(-c2ccc3nc(C4=CCN(CCO)CC4)sc3n2)cc1', 'No'),
  ('CC(C)c1noc(N2CCC([C@H](C)Oc3nc4ccc(-c5ccc(S(C)(=O)=O)nc5F)nc4s3)CC2)n1', 'No'),
  ('CC(C)c1noc(N2CCC([C@H](C)Oc3nc4ccc(-c5cnc(Cl)nc5)nc4s3)CC2)n1', 'Yes'),
  ('CC(C)OC(=O)N1CCC(C(C)Oc2nc3ccc(-c4ccc(S(C)(=O)=O)cc4)nc3s2)CC1 (centres unmarked)', 'Yes'),
  ('CC(C)c1noc(N2CCC(C(C)Oc3nc4ccc(-c5ccc(S(C)(=O)=O)nc5)nc4s3)CC2)n1 (centres unmarked)', 'Yes'),
  ('CC(C)c1noc(N2CCC([C@H](C)Oc3nc4ccc(-c5ccc(C(F)(F)F)nc5)nc4s3)CC2)n1', 'Yes');

* * *

Measured EC50 accompanies every entry in the list below.
# ASSAYED SYSTEM: hGPR119 (Homo sapiens)
# PROTOCOL SUMMARY: In vitro cyclic AMP assay (Cisbio dynamic 2 HTRF kit) in CHO-hGPR119 cells
# PROTOCOL CONDITIONS: cAMP
ENDPOINT: EC50

INSERT INTO measurements (compound, endpoint, result) VALUES
  ('CCCc1cnc(N2CCC([C@H](C)Oc3nc4ccc(-c5ccncc5)nc4s3)CC2)nc1', 'EC50', '100 to 500 nM'),
  ('CCc1cnc(N2CCC([C@H](C)Oc3nc4ccc(-c5ccc(S(C)(=O)=O)nc5)nc4s3)CC2)nc1', 'EC50', '< 25 nM'),
  ('CC(C)c1noc(N2CCC([C@H](C)Oc3nc4ccc(-c5ccc(S(C)(=O)=O)cc5)nc4s3)CC2)n1', 'EC50', '50 to 100 nM'),
  ('CCCc1cnc(N2CCC(C(C)Oc3nc4ccc(-c5ccc(S(C)(=O)=O)cc5)nc4s3)CC2)nc1 (stereo not shown)', 'EC50', '50 to 100 nM');

* * *

Measured activation at 1 µM accompanies every entry in the list below.
# ASSAYED SYSTEM: hGPR119 (Homo sapiens, UniProt Q8TDV5)
# Construct: expressed in transfected cells; host or cells: CHO
# PROTOCOL SUMMARY: In vitro cyclic AMP assay (Cisbio dynamic 2 HTRF kit) in CHO-hGPR119 cells
# Assay type: cell-based
# PROTOCOL CONDITIONS: 1 h, cAMP, compound at 1 μM, 60 min, read-out: Induction (% induction at 1 μM)
ENDPOINT: activation at 1 µM (%)

INSERT INTO assay_data (molecule, assayed_system, unit_of_measure, quantitative_result) VALUES
  ('CS(=O)(=O)c1ccc(-c2nc3ccc(OCC4CCN(Cc5ccccc5)CC4)nc3s2)cc1', 'hGPR119 (Homo sapiens, UniProt Q8TDV5)', '%', 5),
  ('CC(C)c1noc(N2CCC(C(C)Oc3nc4ccc(-c5ccc(N6CCCC6=O)nc5)nc4s3)CC2)n1 (stereo not drawn)', 'hGPR119 (Homo sapiens, UniProt Q8TDV5)', '%', 61),
  ('CC(Oc1nc2ccc(-c3ccc(S(C)(=O)=O)cc3)nc2s1)C1CCN(c2ncc(Cl)cn2)CC1 (stereo not drawn)', 'hGPR119 (Homo sapiens, UniProt Q8TDV5)', '%', 40),
  ('CC(C=C1CCN(c2nc(C(C)C)no2)CC1)Oc1nc2ccc(-c3ccc(S(C)(=O)=O)cc3)nc2s1 (stereo not drawn)', 'hGPR119 (Homo sapiens, UniProt Q8TDV5)', '%', 3),
  ('CCc1cnc(N2CCC(C(C)Oc3nc4ccc(-c5ccc(S(C)(=O)=O)cc5)nc4s3)CC2)nc1 (stereo not drawn)', 'hGPR119 (Homo sapiens, UniProt Q8TDV5)', '%', 76),
  ('CCc1noc(N2CCC([C@H](C)Oc3nc4ccc(-c5ccc(S(C)(=O)=O)nc5)nc4s3)CC2)n1', 'hGPR119 (Homo sapiens, UniProt Q8TDV5)', '%', 76),
  ('CC(C)c1nc(N2CCC(C(C)Oc3nc4ccc(-c5ccc(S(C)(=O)=O)cc5)nc4s3)CC2)no1 (stereo not drawn)', 'hGPR119 (Homo sapiens, UniProt Q8TDV5)', '%', 48),
  ('CC(C)c1noc(N2CCC(C(C)Oc3nc4ccc(-c5cnc(S(C)(=O)=O)cn5)nc4s3)CC2)n1 (stereo not drawn)', 'hGPR119 (Homo sapiens, UniProt Q8TDV5)', '%', 80),
  ('CC(C)c1noc(N2CCC(COc3nc4ccc(-c5ccncc5)nc4s3)CC2)n1', 'hGPR119 (Homo sapiens, UniProt Q8TDV5)', '%', 14),
  ('C[C@H](Oc1nc2ccc(-c3ccc(S(C)(=O)=O)nc3)nc2s1)C1CCN(c2ncc(C(F)(F)F)cn2)CC1', 'hGPR119 (Homo sapiens, UniProt Q8TDV5)', '%', 70),
  ('CCCc1cnc(N2CCC([C@@H](C)Oc3nc4ccc(-c5ccc(S(C)(=O)=O)cc5)nc4s3)CC2)nc1', 'hGPR119 (Homo sapiens, UniProt Q8TDV5)', '%', 54),
  ('CC(C)c1noc(N2CC[C@@H](COc3nc4ccc(-c5ccc(S(C)(=O)=O)cc5)nc4s3)[C@H](F)C2)n1', 'hGPR119 (Homo sapiens, UniProt Q8TDV5)', '%', 5),
  ('CC(C)c1noc(N2CCC(C(C)Oc3nc4cnc(-c5ccc(S(C)(=O)=O)nc5)nc4s3)CC2)n1 (stereo not drawn)', 'hGPR119 (Homo sapiens, UniProt Q8TDV5)', '%', 62),
  ('CCc1cnc(N2CCC(C(C)Oc3nc4ccc(-c5ccncc5)nc4s3)CC2)nc1 (stereo not drawn)', 'hGPR119 (Homo sapiens, UniProt Q8TDV5)', '%', 64),
  ('CC(=O)N(C)c1ncc(-c2ccc3nc(OC(C)C4CCN(c5nc(C(C)C)no5)CC4)sc3n2)cn1 (stereo not drawn)', 'hGPR119 (Homo sapiens, UniProt Q8TDV5)', '%', 65);
